- test_protocol: Cytotoxicity in normal cell line (MTT)
- Assay type: cell-based, human
- stated_conditions: human, HaCaT cells (human keratinocyte cell line), read-out: EC50 (50% cytotoxicity inhibition concentration)
Ends that are not written are not given here.
recorded_metric: EC50 at 24 h (µM)
Lab book: enter the figure in µM, no units written.

Task: Return reported EC50 at 24 h; argument: AKKVFKRLPKLFSKIWNWK-NH2 [HPA3P, AKKVFKRLPKLFSKIWNWK-NH2]
Output: 381

Attribution: patent US9463214B2
